Target: T1, human ROR1 extracellular domain-Fc fusion (human, UniProt Q01973 30-406)
T1 construct: extracellular domain; also called hROR1; ROR1-hFc
Assay: SPR
measurement name: koff (s⁻¹)
Give a bare numeral; the unit s⁻¹ is implied.

| binder | koff [s⁻¹] |
| --- | --- |
| P3A1-P3A1-Ox-MMAE (VNAR, chain 1 pos 265 (C-terminal Gly, written G): carboxyl derivatised with O,O'-1,3-propanediylbishydroxylamine (C-terminal aminoxy), joined by oxime to benzaldehyde PEG4 MMAE (non-cleavable), linker as for m77) TRVDQTPRTATKETGESLTINCVLTDTSYGLYSTSWFRKNPGTTDWERMSIGGRYVESVNKGAKSFSLRIKDLTVADSATYYCKAREARHPWLRQWYDGAGTVLTVNGGGGSGGGGSGGGGSGGGGSGGGGSTRVDQTPRTATKETGESLTINCVLTDTSYGLYSTSWFRKNPGTTDWERMSIGGRYVESVNKGAKSFSLRIKDLTVADSATYYCKAREARHPWLRQWYDGAGTVLTVNQASGAHHHHHHGAEFEQKLISEEDLG | 0.0032 |
| P3A1-[G4S]5-P3A1 homodimer with His6Myc tag (VNAR, genetic fusion of two VNAR domains; also called P3A1 dimer 6xHis myc; P3A1-P3A1) TRVDQTPRTATKETGESLTINCVLTDTSYGLYSTSWFRKNPGTTDWERMSIGGRYVESVNKGAKSFSLRIKDLTVADSATYYCKAREARHPWLRQWYDGAGTVLTVNGGGGSGGGGSGGGGSGGGGSGGGGSTRVDQTPRTATKETGESLTINCVLTDTSYGLYSTSWFRKNPGTTDWERMSIGGRYVESVNKGAKSFSLRIKDLTVADSATYYCKAREARHPWLRQWYDGAGTVLTVNQASGAHHHHHHGAEFEQKLISEEDL | 0.00296 |
| P3A1-P3A1-S-mal-vcMMAE (VNAR, chain 1 pos 265 (C-terminal Gly, written G): carboxyl amidated with cysteamine (intein cleavage); its thiol joined by thioether to maleimide MC vc PAB MMAE) TRVDQTPRTATKETGESLTINCVLTDTSYGLYSTSWFRKNPGTTDWERMSIGGRYVESVNKGAKSFSLRIKDLTVADSATYYCKAREARHPWLRQWYDGAGTVLTVNGGGGSGGGGSGGGGSGGGGSGGGGSTRVDQTPRTATKETGESLTINCVLTDTSYGLYSTSWFRKNPGTTDWERMSIGGRYVESVNKGAKSFSLRIKDLTVADSATYYCKAREARHPWLRQWYDGAGTVLTVNQASGAHHHHHHGAEFEQKLISEEDLG | 0.0026 |

Below: the item to evaluate.
## Input Reported koff for P3A1-P3A1-Ox-vcMMAE (VNAR, chain 1 pos 265 (C-terminal Gly, written G): carboxyl derivatised with O,O'-1,3-propanediylbishydroxylamine (C-terminal aminoxy), joined by oxime to benzaldehyde PEG2 vc PAB MMAE, linker as for m77) TRVDQTPRTATKETGESLTINCVLTDTSYGLYSTSWFRKNPGTTDWERMSIGGRYVESVNKGAKSFSLRIKDLTVADSATYYCKAREARHPWLRQWYDGAGTVLTVNGGGGSGGGGSGGGGSGGGGSGGGGSTRVDQTPRTATKETGESLTINCVLTDTSYGLYSTSWFRKNPGTTDWERMSIGGRYVESVNKGAKSFSLRIKDLTVADSATYYCKAREARHPWLRQWYDGAGTVLTVNQASGAHHHHHHGAEFEQKLISEEDLG : what is it?
## Output 0.00277
